Assay: Cell viability (CCK-8), cytotoxicity
Conditions: human, THP1 cells, Cell viability (Fig. S2e), THP1 (48h), XQ2 0.16 μM
Description: Cell viability was measured by cell counting kit-8 (TargetMol) according to the manufacturer’s instructions. Supplementary Fig. 2. […] (e-g) THP1 cells (e), L929 cells (f) and RAW264.7 cells (g) were exposed to the indicated doses of XQ2 for 48h, the cell viability was measured by CCK8 assay. Data are representative of three independent experiments in (a-g). […] Supplementary Fig. 7. […] The cell viability was measured by CCK8 assay. […]
Square brackets hold non-standard residues; d marks the D form. Peptide text beside a SMILES is read from it.
measureName: viability at 48 h, 0.16 µM (%)
Give bare numbers, in %.

Input line: Could you tell me which viability at 48 h, 0.16 µM is on file for CC(C)C[C@@H]1NC(=O)[C@H](CCCNC(=N)N)NC(=O)[C@H](C(C)C)NC(=O)[C@@H]2CCCN2C(=O)[C@@H](Cc2ccccc2)NC(=O)[C@H](CC(C)C)NC(=O)[C@H](CCCNC(=N)N)NC(=O)[C@H](C(C)C)NC(=O)[C@H](C)NC(=O)[C@@H](Cc2ccccc2)NC1=O [XQ2, Cyclo (LfAVRLfPVR)] (cyclo(L[dF]AVRL[dF]PVR)) ?
Output line: 87.4

* * *

Assay: in vivo
Conditions: C57BL/6, mouse, iv, 10 mg/kg
Square brackets hold non-standard residues; d marks the D form. Peptide text beside a SMILES is read from it.
measureName: half-life (h)
One number for each entry, in h.

Input line: Could you tell me which half-life is on file for CC(C)C[C@@H]1NC(=O)[C@H](CCCNC(=N)N)NC(=O)[C@H](C(C)C)NC(=O)[C@@H]2CCCN2C(=O)[C@@H](Cc2ccccc2)NC(=O)[C@H](CC(C)C)NC(=O)[C@H](CCCNC(=N)N)NC(=O)[C@H]([C@@H](C)O)NC(=O)[C@H](C)NC(=O)[C@@H](Cc2ccccc2)NC1=O [XQ2B] (cyclo([dF]ATRL[dF]PVRL)) ?
Output line: 1.1

* * *

Experiment: in vitro
Conditions: mouse, RAW264.7 cells, Cell viability (Fig. S2e), RAW264.7 (48h), XQ2 2.5 μM
Square brackets hold non-standard residues; d marks the D form. Peptide text beside a SMILES is read from it.
measureName: viability at 48 h, 2.5 µM (%)
Answers are plain numbers, in %.

Input line: Could you tell me which viability at 48 h, 2.5 µM is on file for CC(C)C[C@@H]1NC(=O)[C@H](CCCNC(=N)N)NC(=O)[C@H](C(C)C)NC(=O)[C@@H]2CCCN2C(=O)[C@@H](Cc2ccccc2)NC(=O)[C@H](CC(C)C)NC(=O)[C@H](CCCNC(=N)N)NC(=O)[C@H](C(C)C)NC(=O)[C@H](C)NC(=O)[C@@H](Cc2ccccc2)NC1=O [XQ2, Cyclo (LfAVRLfPVR)] (cyclo(L[dF]AVRL[dF]PVR)) ?
Output line: 104

* * *

Test: Cell viability (CCK-8), cytotoxicity
Conditions: human, THP1 cells, Cell viability (Fig. S2e), THP1 (48h), XQ2 1.25 μM
Square brackets hold non-standard residues; d marks the D form. Peptide text beside a SMILES is read from it.
measureName: viability at 48 h, 1.25 µM

Input line: Could you tell me which viability at 48 h, 1.25 µM is on file for CC(C)C[C@@H]1NC(=O)[C@H](CCCNC(=N)N)NC(=O)[C@H](C(C)C)NC(=O)[C@@H]2CCCN2C(=O)[C@@H](Cc2ccccc2)NC(=O)[C@H](CC(C)C)NC(=O)[C@H](CCCNC(=N)N)NC(=O)[C@H](C(C)C)NC(=O)[C@H](C)NC(=O)[C@@H](Cc2ccccc2)NC1=O [XQ2, Cyclo (LfAVRLfPVR)] (cyclo(L[dF]AVRL[dF]PVR)) ?
Output line: 95.7%
